# Test system: K562 CRISPRi cells
# Experiment Summary: Constant region variant library pooled growth screen, K562
# Type: cell-based, human
# Run Parameters: sgRNA constant region variants; activity relative to the original, un-modified constant region cr995
Tag: YES if measured Mean relative activity is not below 0.8, NO if it is.

Please review the following examples before continuing.
Molecule | Group
cr647 (nucleic acid, listed as DNA, chemistry not fully specified) guide: GTTTAAGAGCTAAGCTGGAAACAGGATAGCAAGTTTAAATAAGGCTAGTCCGTTATCAACTTGAAAAAGTGGCACCGAGTCGGTGCT | YES
cr260 (nucleic acid, listed as DNA, chemistry not fully specified) guide: GTTTAAGAGCTAAGCTGGAAACAGCATAGCAAGTTTAAATAAGGCTAGTCCGATATCAACTTGAAAAAGTGGCACCGAGTCGGTGCT | YES
cr129 (nucleic acid, listed as DNA, chemistry not fully specified) guide: GTTTAAGAGCTAAGCTGGAAACAGCATAGCAAGTTTAAATAAGGCTAGTCCGTTATCAACGTGAGAACGTGGCACCGAGTCGGTGCT | YES
cr400 (nucleic acid, listed as DNA, chemistry not fully specified) guide: GTTTAAGAGCTAAGCTGGAAACAGCATAGCAAGGTTAAATAAGGATATTCCGTTATCAACTTGAAAAAGTGGCACCGAGTCGGTGCT | NO
cr188 (nucleic acid, listed as DNA, chemistry not fully specified) guide: GTTTAAGAGCTAAGCTGGAAACAGCATAGCAAGTTTAAATAATGCTAGTCAGTTATCAACCTGAAAAGGTGGCACCGAGTCGGTGCT | NO
cr762 (nucleic acid, listed as DNA, chemistry not fully specified) guide: GTTTAAGAGCTAAGCTGGAAACAGCATAGCACGTTTAAATAAGGCTAGTCCTTTATCAACTTGAAAAAGTGGCACCGAGTCGGTGCT | NO

# input Confirm if Mean relative activity reported for the molecule cr313 (nucleic acid, listed as DNA, chemistry not fully specified) guide: GTTTAAGAGCTAAGCTGGAAACAGCATAGCAAGTTTAAATAAGGCTAGTCCGTTATCAACTTGAAAAAGTGGGTGGGAGTCGCTCCT is 0.8 or above.
# output NO

meta.source: patent US20220259593A1
